Entry source: the SangsterLogP compilation

# Lookup of reported logP keyed by entry
Lab note: record just the number, no unit beside it.

OCC1(Nc2nc(N3CC3)nc(N3CC3)n2)COC(c2ccccc2)OC1 (stereo unspecified)	0.62
CC(C)C1OCC(CO)(Nc2nc(N3CC3)nc(N3CC3)n2)CO1 (stereo unspecified)	0.22
CC(CO)(CO)Nc1nc(N2CC2)nc(N2CC2)n1	-0.75
CCC(CO)(CO)Nc1nc(N2CC2)nc(N2CC2)n1	-0.32
CC1(C)OCC(Nc2nc(N3CC3)nc(N3CC3)n2)CO1	0.11
OCC(CO)(CO)Nc1nc(N2CC2)nc(N2CC2)n1	-1.76
COc1ccc(C2OCC(CO)(Nc3nc(N4CC4)nc(N4CC4)n3)CO2)cc1OC (stereo unspecified)	0.89
OCC(CO)Nc1nc(N2CC2)nc(N2CC2)n1	-1.54
CC1(C)OCC(CO)(Nc2nc(N3CC3)nc(N3CC3)n2)CO1	-0.52
CCC1(Nc2nc(N3CC3)nc(N3CC3)n2)COC(C)(C)OC1	0.85

Kindly consider the entry below.
Lookup: Query (compound): OCC1(Nc2nc(N3CC3)nc(N3CC3)n2)COC(c2ccco2)OC1 (stereo unspecified) ; field requested: logP
Found: 0.27
